Provide the recorded Relative MGMT activity (%) for the entries that follow.
# Tested on: U251 human glioblastoma cell line
# assay: in vitro FM-HCR assay of MGMT activity (mPlum O^6MeG reporter plasmid)
# Assay type: cell-based
# condition details: MGMT activity (a.u.) in O^6BG divided by DMSO x 100; higher values indicate resistance
Please reply with the bare figure in % and do not write the unit itself.

Enquiry: Relative MGMT activity (%) for S159W: MGMT polypeptide with mutation S159W (protein) MDKDCEMKRTTLDSPLGKLELSGCEQGLHEIKLLGKGTSAADAVEVPAPAAVLGGPEPLMQCTAWLNAYFHQPEAIEEFPVPALHHPVFQQESFTRQVLWKLLKVVKFGEVISYQQLAALAGNPKAARAVGGAMRGNPVPILIPCHRVVCSSGAVGNYWGGLAVKEWLLAHEGHRLGKPGLGGSSGLAGAWLKGAGATSGSPPAGRN ?
Return: 29.0

Enquiry: Request: P140I: MGMT polypeptide with mutation P140I (protein) MDKDCEMKRTTLDSPLGKLELSGCEQGLHEIKLLGKGTSAADAVEVPAPAAVLGGPEPLMQCTAWLNAYFHQPEAIEEFPVPALHHPVFQQESFTRQVLWKLLKVVKFGEVISYQQLAALAGNPKAARAVGGAMRGNPVIILIPCHRVVCSSGAVGNYSGGLAVKEWLLAHEGHRLGKPGLGGSSGLAGAWLKGAGATSGSPPAGRN
Return: 47.3

Enquiry: Same again, this time with wild-type MGMT: reference MGMT polypeptide according to SEQ ID NO: 1 (GenBank NP_002403.3); used as control (protein, REGION 1..207: note = Wild Type MGMT, used as control) MDKDCEMKRTTLDSPLGKLELSGCEQGLHEIKLLGKGTSAADAVEVPAPAAVLGGPEPLMQCTAWLNAYFHQPEAIEEFPVPALHHPVFQQESFTRQVLWKLLKVVKFGEVISYQQLAALAGNPKAARAVGGAMRGNPVPILIPCHRVVCSSGAVGNYSGGLAVKEWLLAHEGHRLGKPGLGGSSGLAGAWLKGAGATSGSPPAGRN
Return: 26.4

Enquiry: What do we get for G156A: MGMT polypeptide with mutation G156A (protein) MDKDCEMKRTTLDSPLGKLELSGCEQGLHEIKLLGKGTSAADAVEVPAPAAVLGGPEPLMQCTAWLNAYFHQPEAIEEFPVPALHHPVFQQESFTRQVLWKLLKVVKFGEVISYQQLAALAGNPKAARAVGGAMRGNPVPILIPCHRVVCSSGAVANYSGGLAVKEWLLAHEGHRLGKPGLGGSSGLAGAWLKGAGATSGSPPAGRN ?
Return: 40.8

Enquiry: Follow-up entry: P140K: O^6BG-resistant MGMT polypeptide with K at position 140, SEQ ID NO: 8; used as control (protein, REGION 1..207: note = Synthetic: MGMTP140K, used as control) MDKDCEMKRTTLDSPLGKLELSGCEQGLHEIKLLGKGTSAADAVEVPAPAAVLGGPEPLMQCTAWLNAYFHQPEAIEEFPVPALHHPVFQQESFTRQVLWKLLKVVKFGEVISYQQLAALAGNPKAARAVGGAMRGNPVKILIPCHRVVCSSGAVGNYSGGLAVKEWLLAHEGHRLGKPGLGGSSGLAGAWLKGAGATSGSPPAGRN
Return: 86.8
